The reported measurements were obtained from the supplement of paper PMC11246515.

Assay: total protein half-life in vivo (active degradation + dilution); higher = more stable protein
Conditions: wild type E. coli NCM3722; growth: N-lim chemostat; doubling time 6 h
Assay metric: total protein half-life in vivo
Returns: string containing the number followed by the unit.

Here are 5 sequences together with their reported answers.
* MAISSRNTLLAALAFIAFQAQAVNVTVAYQTSAEPAKVAQADNTFAKESGATVDWRKFDSGASIVRALASGDVQIGNLGSSPLAVAASQQVPIEVFLLASKLGNSEALVVKKTISKPEDLIGKRIAVPFISTTHYSLLAALKHWGIKPGQVEIVNLQPPAIIAAWQRGDIDGAYVWAPAVNALEKDGKVLTDSEQVGQWGAPTLDVWVVRKDFAEKHPEVVKAFAKSAIDAQQPYIANPDVWLKQPENISKLARLSGVPEGDVPGLVKGNTYLTPQQQTAELTGPVNKAIIDTAQFLKEQGKVPAVANDYSQYVTSRFVQ | 5.5 h
* MQFSKMHGLGNDFMVVDAVTQNVFFSPELIRRLADRHLGVGFDQLLVVEPPYDPELDFHYRIFNADGSEVAQCGNGARCFARFVRLKGLTNKRDIRVSTANGRMVLTVTDDDLVRVNMGEPNFEPSAVPFRANKAEKTYIMRAAEQTILCGVVSMGNPHCVIQVDDVDTAAVETLGPVLESHERFPERANIGFMQVVKREHIRLRVYERGAGETQACGSGACAAVAVGIQQGLLAEEVRVELPGGRLDIAWKGPGHPLYMTGPAVHVYDGFIHL [P0A6K1] | 5.53 h
* MKTPLVTREGYEKLKQELNYLWREERPEVTKKVTWAASLGDRSENADYQYNKKRLREIDRRVRYLTKCLENLKIVDYSPQQEGKVFFGAWVEIENDDGVTHRFRIVGYDEIFGRKDYISIDSPMARALLKKEVGDLAVVNTPAGEASWYVNAIEYVKP | 3.48 h
* MNIVVLISGNGSNLQAIIDACKTNKIKGTVRAVFSNKADAFGLERARQAGIATHTLIASAFDSREAYDRELIHEIDMYAPDVVVLAGFMRILSPAFVSHYAGRLLNIHPSLLPKYPGLHTHRQALENGDEEHGTSVHFVTDELDGGPVILQAKVPVFAGDSEDDITARVQTQEHAIYPLVISWFADGRLKMHENAAWLDGQRLPPQGYAADE | 4.49 h
* MKKVAIVGLGWLGMPLAMSLSARGWQVTGSKTTQDGVEAARMSGIDSYLLRMEPELVCDSDDLDALMDADALVITLPARRSGPGDEFYLQAVQELVDSALAHRIPRIIFTSSTSVYGDAQGTVKETTPRNPVTNSGRVLEELEDWLHNLPGTSVDILRLAGLVGPGRHPGRFFAGKTAPDGEHGVNLVHLEDVIGAITLLLQAPKGGHIYNICAPAHPARNVFYPQMARLLGLEPPQFRNSLDSGKGKIIDGSRICNELGFEYQYPDPLVMPLE [P0AD12] | 4.35 h

Consider the record given below.
Give the value of total protein half-life in vivo reported for the following: `MNDIAHNLAQVRDKISAAATRCGRSPEEITLLAVSKTKPASAIAEAIDAGQRQFGENYVQEGVDKIRHFQELGVTGLEWHFIGPLQSNKSRLVAEHFDWCHTIDRLRIATRLNDQRPAELPPLNVLIQINISDENSKSGIQLAELDELAAAVAELPRLRLRGLMAIPAPESEYVRQFEVARQMAVAFAGLKTRYPHIDTLSLGMSDDMEAAIAAGSTMVRIGTAIFGARDYSKK`
4.33 h
